Measured interaction score, listed per entry for reference.
TGT: T1, 4H797-AA
T1 chain: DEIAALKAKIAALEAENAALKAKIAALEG
MEASUREMENT DESCRIPTION: two-hybrid library CCmax;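 note: natural log of median RNA to DNA barcode read ratio; higher means stronger binding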
MEASUREMENT CONDITIONS: mean of both orientations
Respond numerically, and do not add a unit to the figure.

Exercise: Return interaction score for the following binder: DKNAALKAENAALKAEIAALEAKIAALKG [4H3782-AA]
Solution: -1.45

---
Exercise: Return interaction score for the following binder: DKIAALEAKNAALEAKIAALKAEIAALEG [4H2473-AA]
Solution: -1.58

Exercise: Return interaction score for the following binder: DEIAALEAKNAALKAKIAALEAKIAALEG [4H485-AA]
Solution: -0.968

Exercise: Return interaction score for the following binder: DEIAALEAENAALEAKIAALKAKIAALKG [4H174-AA]
Solution: -1.35
